Data origin, for the record: PubChem BioAssay (NCI)

Test system: MDA-MB-231 breast
Assay details: NCI tumour cell line growth inhibition, 48 h
Quantity name: TGI

molecule_smiles=Cc1cc(N)c2cc(NC(=O)/C=C\c3ccccc3Cl)ccc2n1 recorded_measurement="2.47 µM"
molecule_smiles=O=c1oc2cc(O)ccc2cc1-c1nc2ccccc2o1 recorded_measurement="> 100 µM"
molecule_smiles=c1ccc([P+](Cc2ccc(C[P+](c3ccccc3)(c3ccccc3)c3ccccc3)s2)(c2ccccc2)c2ccccc2)cc1 recorded_measurement="> 100 µM"

###

Tested on: LOX IMVI melanoma
Assay details: NCI tumour cell line growth inhibition, 48 h
Quantity name: TGI

compound="O=C1Nc2ccccc2C1(O)Cc1ccccn1 (stereo not drawn)" recorded_measurement="> 100 µM"
compound=COc1cccc(-c2nc(N)c(C#N)c3c2CCS(=O)(=O)c2ccc(C)cc2-3)c1 recorded_measurement="> 100 µM"
compound=CCOC(=O)N1C/C(=C\c2ccc(N(C)C)cc2)C(=O)/C(=C/c2ccc(N(C)C)cc2)C1 recorded_measurement="> 100 µM"

###

Tested on: MDA-MB-435
Assay details: NCI tumour cell line growth inhibition, 48 h
The following compounds are shown together with reported TGI values.
Quantity name: TGI

compound="CCOC1OC(CO[Si](C)(C)C(C)(C)C)C(O)CC1n1ccc(=O)[nH]c1=O (centres undefined)" quantity_name=TGI recorded_measurement="> 100 µM"
compound=COC(=O)c1cc2c3cc(Cl)ccc3[nH]c2c2ncccc12 quantity_name=TGI recorded_measurement="> 100 µM"
compound=CCOC(=O)c1nc2sc(Cl)cn2c1/C=N/N=C(N)N quantity_name=TGI recorded_measurement="> 58.2 µM"
compound="COc1ccc(-n2c(C)nc3ccc(NC4OC(COC(C)=O)C(OC(C)=O)C(OC(C)=O)C4OC(C)=O)cc3c2=O)cc1 (centres undefined)" quantity_name=TGI recorded_measurement="> 100 µM"

###

System: SN12C renal
Assay details: NCI tumour cell line growth inhibition, 48 h
The following compounds are shown together with reported TGI values.
Quantity name: TGI

compound=CCc1n[nH]c(=O)n1N recorded_measurement="> 100 µM"
compound=COc1cc2c(/C=C3/C(=O)Nc4cc(C)c(O)cc43)c(Cl)[nH]c2cc1C recorded_measurement="6.07 µM"
compound="NNC(=S)N/N=C(\\c1nc2ccc(Cl)cc2[nH]c1=O)C(O)c1cccc([N+](=O)[O-])c1 (stereo not given)" recorded_measurement="> 100 µM"
compound=COc1cc2c(cc1OCCCN1CCOCC1)N=C[C@@H]1CCCN1C2=O recorded_measurement="> 100 µM"
compound=COc1cc(C)cc2c1C(=O)C(NC(C)=O)=CC2=O recorded_measurement="> 100 µM"
compound=CN(C)/C=N/S(=O)(=O)c1nn2c(C=O)c(-c3ccc(-c4ccccc4)cc3)nc2s1 recorded_measurement="3.19 µM"
compound=CC(=O)O[C@H]1[C@@H](N2CCCCC2)C[C@H]2[C@@H]3CC=C4C[C@@H](N5CCCC5)CC[C@]4(C)[C@H]3CC[C@@]21C recorded_measurement="> 100 µM"
compound="Nc1ncnc2c1ncn2C1OC(F)(COS(N)(=O)=O)C(O)C1O (stereo not given)" recorded_measurement="> 100 µM"
compound=O=C(O)CC(CC(=O)O)n1cccc1 recorded_measurement="> 100 µM"
compound=O=S(=O)([O-])c1ccc(C=Nc2ccccc2)c([O-])c1.O=S(=O)([O-])c1ccc(C=Nc2ccccc2)c([O-])c1.[Co+2] recorded_measurement="> 100 µM"
